Molecular target: DENV2 NS2B-NS3 protease (Dengue virus type 2, UniProt P29990)
Construct: made in house
Sequence (P29990 1476-1654): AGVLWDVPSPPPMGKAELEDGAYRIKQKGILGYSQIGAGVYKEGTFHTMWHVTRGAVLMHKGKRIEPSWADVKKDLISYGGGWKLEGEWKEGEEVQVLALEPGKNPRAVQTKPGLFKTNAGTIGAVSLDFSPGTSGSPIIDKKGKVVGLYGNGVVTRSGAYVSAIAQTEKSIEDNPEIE
Assay: Protease inhibition assay (FRET peptide substrate)
Format: biochemical, Dengue virus serotype 2
Settings: refolded NS3; read-out: IC50-pro (DN2)
// reported IC50 per item
A number alone suffices; assume µM.

Some compounds with known IC50 results, for comparison:
Compound | Units Text | IC50
NCCCCOc1ccc(Cl)cc1C(=O)Nc1ccc([N+](=O)[O-])cc1Cl [HJC0431] | µM | 34
NCCCOc1ccc(Cl)cc1C(=O)Nc1ccc([N+](=O)[O-])cc1Cl [HJC0308] | µM | 39.7

Give reported IC50 for CN1CCC(Oc2ccc(Cl)cc2C(=O)Nc2ccc([N+](=O)[O-])cc2Cl)CC1 [HJC0381] (DENV2 NS2B-NS3 protease (Dengue virus type 2, UniProt P29990))
25.9

Specify IC50 for O=C(Nc1ccc([N+](=O)[O-])cc1Cl)c1cc(Cl)ccc1OCCN1CCOCC1 [HJC0114] , system DENV2 NS2B-NS3 protease (Dengue virus type 2, UniProt P29990).
33.6

###

Biological target: DENV2 NS2B-NS3 interaction (Dengue virus type 2)
Construct: GST (N); made in house
Test: Split luciferase complementation (SLC) NS2B-NS3 interaction assay
Format: binding, Dengue virus serotype 2
Details: concentration reducing 50% of SLC signal; read-out: IC50-SLC-(DN2)
Below, each of the molecules is paired with its reported pIC50 value.
The meaning of pIC50 here: minus log10 of the concentration in molar units.

Field: example entries. Status: answers known.
Molecule | pIC50
O=C(Nc1ccc([N+](=O)[O-])cc1Cl)c1cc(Cl)ccc1OC1CCNCC1 | 4.79
O=C(Nc1ccc([N+](=O)[O-])cc1Cl)c1cc(Cl)ccc1OCCN1CCOCC1 | 4.74
NCCCCOc1ccc(Cl)cc1C(=O)Nc1ccc([N+](=O)[O-])cc1Cl | 5.51
O=C(Nc1ccc2c(c1)S(=O)(=O)C=C2)c1cc(Cl)ccc1O | 4.73

Quote pIC50 reported for CN1CCC(Oc2ccc(Cl)cc2C(=O)Nc2ccc([N+](=O)[O-])cc2Cl)CC1 please.
4.97

###

Overview of recorded EC50 for various compounds
Test system: DENV2
Assay: Viral titer (plaque) reduction assay, DENV2 in A549 cells
Format: cell-based, Dengue virus serotype 2
Details: Dengue virus, DENV2; Table 4, preliminary SAR, A549 cells; read-out: EC50-DN2
Express it in µM; write the number only.

Worked set:
Compound | Units Text | Recorded Number
O=C(Nc1ccc2c(c1)S(=O)(=O)C=C2)c1cc(Cl)ccc1O | µM | 0.9
O=C(Nc1ccc([N+](=O)[O-])cc1Cl)c1cccc([N+](=O)[O-])c1O | µM | 0.36

Consider the compound NCCCCOc1ccc(Cl)cc1C(=O)Nc1ccc([N+](=O)[O-])cc1Cl and give its recorded EC50.
2.2

Assign EC50 to the following record: CN1CCC(Oc2ccc(Cl)cc2C(=O)Nc2ccc([N+](=O)[O-])cc2Cl)CC1
1.2

Specify EC50 for CC(=O)Oc1ccccc1C(=O)Nc1ncc([N+](=O)[O-])s1 [NTZ, nitazoxanide, reference compound] and stop.
0.3

###

Overview of recorded CC50 for various compounds
Assay: WST-8 cell proliferation cytotoxicity assay
Type: cell-based, human
Details: human; A549 cells; read-out: CC50 (A549)
Write the answer as a number in µM, unit excluded.

// known answers, use as guide
Molecule | CC50 (µM)
CN1CCC(Oc2ccc(Cl)cc2C(=O)Nc2ccc([N+](=O)[O-])cc2Cl)CC1 | 91.1
CN1CCN(CCOc2ccc(Cl)cc2C(=O)Nc2ccc([N+](=O)[O-])cc2Cl)CC1 | 177

Moving on to the next compound.
Entry O=C(Nc1ccc([N+](=O)[O-])cc1Cl)c1cc(Cl)ccc1OC1CCNCC1 needs its CC50 filled in; supply it.
50.2

###

Assay: Pharmacokinetics in B6 mice after oral gavage
Details: read-out: Cmax ± S.D.; B6 mice, single oral dose 40 mg/kg, plasma
Metric Name: Cmax (µM)
Please reply with the bare figure in µM and do not write the unit itself.

Give the reported value of Cmax for this record: O=C(Nc1ccc([N+](=O)[O-])cc1Cl)c1cccc([N+](=O)[O-])c1O
145

###

Tested on: DENV2
Test: Viral titer (plaque) reduction assay, DENV2 in A549 cells
Format: cell-based, Dengue virus serotype 2
Conditions: Dengue virus, DENV2; A549 cells, 48 hrs post-infection; read-out: EC50-DN2 (A549)
In this section, each of the compounds is paired with its reported pEC50.
Note on units: pEC50 is unitless, being -log10 of a concentration expressed in mol/L.

Molecule | pEC50
CC[C@H](N)COc1ccc(Cl)cc1C(=O)Nc1ccc([N+](=O)[O-])cc1Cl | 6.37
O=C(Nc1ccc([N+](=O)[O-])cc1Cl)c1cc(Cl)ccc1OC1CCNCC1 | 6.68
CN1CCN(CCOc2ccc(Cl)cc2C(=O)Nc2ccc([N+](=O)[O-])cc2Cl)CC1 | 5.19

Dear colleague, please send me the reported pEC50 for NCCCCOc1ccc(Cl)cc1C(=O)Nc1ccc([N+](=O)[O-])cc1Cl when you can.
5.66

###

System: DENV2
Assay: Viral titer (plaque) reduction assay, DENV2 in A549 cells
Assay type: cell-based, Dengue virus serotype 2
Conditions: Dengue virus, DENV2, A549, 48 h, read-out: EC50-DN2 (A549)
Metric Name: EC50 (nM)
Entry rule: numbers only, all in nM.

Supply reported EC50 belonging to this compound: O=C(Nc1ccc([N+](=O)[O-])cc1Cl)c1cc(Cl)ccc1O [Niclosamide, reference compound]
550

###

This listing pairs compounds with measured EC50.
System: DENV2
Experiment: Viral titer (plaque) reduction assay, DENV2 in A549 cells
Type: cell-based, Dengue virus serotype 2
Details: Dengue virus, DENV2; A549 cells, 48 hrs post-infection; read-out: EC50-DN2 (A549)
Give just the numeric value; nM need not be written.

Below are worked cases with known answers.
Molecule | Recorded Number
O=C(Nc1ccc([N+](=O)[O-])cc1Cl)c1cccc([N+](=O)[O-])c1O | 310
NCCCOc1ccc(Cl)cc1C(=O)Nc1ccc([N+](=O)[O-])cc1Cl | 1400
CN1CCC(Oc2ccc(Cl)cc2C(=O)Nc2ccc([N+](=O)[O-])cc2Cl)CC1 | 1200

Now turn to the next compound.
Entry O=C(Nc1ccc2c(c1)S(=O)(=O)C=C2)c1cc(Cl)ccc1O needs its EC50 filled in; supply it.
900

###

Experiment: LogP
Metric Name: logP
API note: the answer field is a bare number with no unit suffix.

Compound | Recorded Number
NCCCCOc1ccc(Cl)cc1C(=O)Nc1ccc([N+](=O)[O-])cc1Cl | 3.9
CC(=O)Nc1ccc(NC(=O)c2cc(Cl)ccc2O)c(Cl)c1 | 2.47
O=C(NC(Cc1ccccc1)C(=O)Nc1ccc([N+](=O)[O-])cc1Cl)c1cc(Cl)ccc1O (stereo not drawn) | 3.84

Retrieve logP measured for O=C(Nc1ccc([N+](=O)[O-])cc1Cl)c1cccc([N+](=O)[O-])c1O and print it.
2.72

Retrieve logP measured for O=C(Nc1ccc2c(c1)S(=O)(=O)C=C2)c1cc(Cl)ccc1O and print it.
2.41

Provide logP value for the following compound: CN1CCC(Oc2ccc(Cl)cc2C(=O)Nc2ccc([N+](=O)[O-])cc2Cl)CC1
2.38

Report logP for O=C(Nc1cc(F)cc(C(F)(F)F)c1)c1cccc([N+](=O)[O-])c1O
3.26

Retrieve logP measured for O=C(Nc1ccc(C(F)(F)F)cc1Cl)c1cc(Cl)ccc1O and print it.
4.49

// Input: Nc1ccc(NC(=O)c2cc(Cl)ccc2O)c(Cl)c1 . Output its logP only.
2.76

###

Molecular target: DENV2 NS2B-NS3 protease (Dengue virus type 2, UniProt P29990)
Construct: made in house
Assay: Protease inhibition assay (FRET peptide substrate)
Format: biochemical, Dengue virus serotype 2
Conditions: Table 4, preliminary SAR; read-out: IC50-pro(DN2)
Metric Name: IC50
Remember to put the unit after the number in your answer.

Using the record for O=C(Nc1cc(F)cc(C(F)(F)F)c1)c1cccc([N+](=O)[O-])c1O [JMX0317] , state its measured IC50.
8.4 µM

Give me measured IC50, please, for this compound: O=C(NC(Cc1ccccc1)C(=O)Nc1ccc([N+](=O)[O-])cc1Cl)c1cc(Cl)ccc1O (centres unmarked) [JMX0285]
5.7 µM

###

Biological target: DENV2 NS2B-NS3 interaction (Dengue virus type 2, UniProt P29990)
Construct: GST (N)
Sequence (P29990 1476-1654): as above
Assay: Split luciferase complementation (SLC) NS2B-NS3 interaction assay
Settings: concentration reducing 50% of SLC signal; read-out: IC50-SLC-(DN2)
The entries below come with measured pIC50 values attached.
Just so you know, pIC50 here is -log10 of the concentration in molar units; reply with that number alone.

Guide cases for pIC50, answers given:
Compound | Target Under Test | pIC50
O=C(Nc1ccc([N+](=O)[O-])cc1Cl)c1cc(Cl)ccc1O [Niclosamide, reference compound] | DENV2 NS2B-NS3 interaction (Dengue virus type 2, UniProt P29990) | 5.70
Nc1ccc(NC(=O)c2cc(Cl)ccc2O)c(Cl)c1 | DENV2 NS2B-NS3 interaction (Dengue virus type 2, UniProt P29990) | 5.02
CN1CCN(CCOc2ccc(Cl)cc2C(=O)Nc2ccc([N+](=O)[O-])cc2Cl)CC1 | DENV2 NS2B-NS3 interaction (Dengue virus type 2, UniProt P29990) | 4.88
NCCCOc1ccc(Cl)cc1C(=O)Nc1ccc([N+](=O)[O-])cc1Cl | DENV2 NS2B-NS3 interaction (Dengue virus type 2, UniProt P29990) | 5.31

Now consider the entry below.
Input CC[C@H](N)COc1ccc(Cl)cc1C(=O)Nc1ccc([N+](=O)[O-])cc1Cl , output reported pIC50.
5.22
